Listed here are binders together with their documented interaction score.
Target: T1, 4H3414-AA
T1 chain: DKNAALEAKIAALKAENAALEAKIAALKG
Test: two-hybrid library CCmax;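 also: natural log of median RNA to DNA barcode read ratio; higher means stronger binding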
Details: mean of both orientations
Response field accepts a number only; no unit should be typed.

See these solved cases before continuing.
| binder | interaction score |
| --- | --- |
| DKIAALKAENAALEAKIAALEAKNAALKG [4H2728-AA] | -1.03 |
| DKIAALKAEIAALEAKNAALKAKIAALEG [4H2621-AA] | 2.21 |
| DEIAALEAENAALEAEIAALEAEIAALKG [4H130-AA] | 1 |
| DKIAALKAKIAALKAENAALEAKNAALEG [4H2903-AA] | -1.72 |

Next item in the queue.
Measured interaction score of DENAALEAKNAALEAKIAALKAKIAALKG [4H1454-AA] : -1.31

The measurements presented in this section are drawn from paper PMC10397247.
